Provide the recorded Tmax for the entries that follow.
# Test protocol: Tmax in Sprague-Dawley rat at 10 mg/kg, po administered with 50% PEG400 containing 2.5% of Vitamin E-TPGS
# Type: ADME, organism-based
# Set-up: dose 10 mg/kg, route oral
# Study conditions: in vivo
Respond with a number, then the unit of measure.

[[record]]
smiles_code = "COc1ccc2c(O[C@@H]3C[C@H]4C(=O)N[C@]5(C(=O)NS(=O)(=O)C6(C)CC6)C[C@H]5/C=C\\CCCCCC(=O)N4C3)cc(-c3nc(C(C)C)cs3)nc2c1C"
parameter = "Tmax"
result_value = "45 min"


Then there is this molecule:
// Input: `COc1ccc2c(O[C@@H]3C[C@H]4C(=O)N[C@]5(C(=O)NS(=O)(=O)C6(C)CC6)C[C@H]5/C=C\CCCCCNC(=O)N4C3)cc(-c3nc(C(C)C)cs3)nc2c1` . Output its Tmax only.
45 min

====

# Test protocol: Drug metabolism in human liver microsomes at 5 uM at 37 degC after 15 mins
# Format: ADME
# Study conditions: read-out: Drug metabolism
Parameter: metabolised at 0.25 h, 5 µM (%)
Answers are plain numbers, in %.

[[record]]
smiles_code = "COc1ccc2c(O[C@@H]3C[C@H]4C(=O)N[C@]5(C(=O)NS(=O)(=O)C6(C)CC6)C[C@H]5/C=C\\CCCCCNC(=O)N4C3)cc(-c3nc(C(C)C)cs3)nc2c1"
unit_abbrev = "%"
result_value = 89


// Input: `COc1ccc2c(O[C@@H]3C[C@H]4C(=O)N[C@]5(C(=O)O)C[C@H]5/C=C/CCCCC[C@H](NC(=O)OC5CCCC5)C(=O)N4C3)cc(-c3csc(NC(C)C)n3)nc2c1` . Output its metabolised at 0.25 h, 5 µM only.
2.5

====

Provide the recorded Vd for the entries that follow.
# Test protocol: Volume of distribution at steady state in Sprague-Dawley rat at 2 mg/kg, iv administered as single dose with 20% Hydroxypropyl-beta-cyclodextrine
# Type: ADME, organism-based
# Design: dose 2 mg/kg, route intravenous
# Study conditions: in vivo, read-out: Vdss
Answers are plain numbers, in L/kg.

Guide cases for Vd, answers given:
[[record]]
smiles_code = "COc1ccc2c(O[C@@H]3C[C@H]4C(=O)N[C@]5(C(=O)NS(=O)(=O)C6(C)CC6)C[C@H]5/C=C\\CCCCCNC(=O)N4C3)cc(-c3nc(C(C)C)cs3)nc2c1"
result_value = 1

[[record]]
smiles_code = "COc1ccc2c(O[C@@H]3C[C@H]4C(=O)N[C@]5(C(=O)NS(=O)(=O)C6CC6)C[C@H]5/C=C\\CCCCN(C)C(=O)N4C3)nc(-c3ccccc3)nc2c1C"
result_value = 1.1


Then there is this molecule:
// Input: `COc1ccc2c(O[C@@H]3C[C@H]4C(=O)N[C@]5(C(=O)NS(=O)(=O)C6(C)CC6)C[C@H]5/C=C\CCCCCC(=O)N4C3)cc(-c3nc(C(C)C)cs3)nc2c1C` . Output its Vd only.
0.56

====

# Test protocol: Oral bioavailability in rat
# Format: ADME, organism-based
# Study conditions: in vivo
Parameter: bioavailability (%)
Numbers only, in %.

// Input: `COc1ccc2c(O[C@@H]3C[C@H]4C(=O)N[C@]5(C(=O)NS(=O)(=O)C6CC6)C[C@H]5/C=C\CCCCN(C)C(=O)[C@@H]4C3)cc(-c3ccccc3)nc2c1` . Output its bioavailability only.
2.5

====

# Test protocol: Intrinsic clearance in human liver microsomes
# Format: ADME
# Study conditions: read-out: CLH
Provide the recorded microsomal CLint for the entries that follow.
Give bare numbers, in µL/min/mg.

[[record]]
smiles_code = "COc1ccc(-c2nc(O[C@@H]3C[C@H]4C(=O)N[C@]5(C(=O)NS(=O)(=O)C6CC6)C[C@H]5/C=C\\CCCCN(C)C(=O)N4C3)c3ccc(OC)c(C)c3n2)cc1"
parameter = "microsomal CLint"
result_value = 8


Then there is this molecule:
// Input: `COc1ccc2c(O[C@@H]3C[C@H]4C(=O)N[C@]5(C(=O)NS(=O)(=O)C6CC6)C[C@H]5/C=C\CCCCN(C)C(=O)N4C3)nc(-c3ccccc3)nc2c1C` . Output its microsomal CLint only.
17

====

Provide the recorded half-life for the entries that follow.
# Test protocol: Half life in Sprague-Dawley rat at 10 mg/kg, po administered with 50% PEG400 containing 2.5% of Vitamin E-TPGS
# Type: ADME, organism-based
# Set-up: dose 10 mg/kg, route oral
# Study conditions: in vivo
Answers are plain numbers, in h.

[[record]]
smiles_code = "COc1ccc2c(O[C@@H]3C[C@H]4C(=O)N[C@]5(C(=O)NS(=O)(=O)C6(C)CC6)C[C@H]5/C=C\\CCCCCC(=O)N4C3)cc(-c3nc(C(C)C)cs3)nc2c1C"
parameter = "half-life"
result_value = 2.7


Then there is this molecule:
// Input: `COc1ccc2c(O[C@@H]3C[C@H]4C(=O)N[C@]5(C(=O)NS(=O)(=O)C6(C)CC6)C[C@H]5/C=C\CCCCCNC(=O)N4C3)cc(-c3nc(C(C)C)cs3)nc2c1` . Output its half-life only.
3

====

# Test protocol: Ratio of drug level in liver to plasma in Sprague-Dawley rat at 10 mg/kg, po administered with 50% PEG400 containing 2.5% of Vitamin E-TPGS measured after 6 hrs
# Assay type: ADME, organism-based
# Parameters: dose 10 mg/kg, route oral
# Study conditions: liver and plasma
Parameter: Kp at 6 h
Give bare numbers.

// Input: `COc1ccc2c(O[C@@H]3C[C@H]4C(=O)N[C@]5(C(=O)NS(=O)(=O)C6(C)CC6)C[C@H]5/C=C\CCCCCNC(=O)N4C3)cc(-c3nc(C(C)C)cs3)nc2c1` . Output its Kp at 6 h only.
100
